# tgt: T1, biotinylated Fc-fused monkey CD137 (monkey, biotin on the AviTag)
# T1 construct: also called cyCD137-Fc-BAP
# assay protocol: ELISA, 1 mM ADP, 0.010 ug/mL
# Set-up: reference not given here

binder	absorbance ratio
dBBAT119-P253 (antibody, human IgG1, lambda, V domains shown, also called dBBAT119H-P253/dBBAT119L-LamLib) VH: EVQLVESGGDLVKPGGGLRLSCAASGFTFSTFTMNWVRQAPGKGLEWVSSISSRSNYKSYADSVKGRFTISRDNAKNSLYLQMNSLRAEDTAVYYCARYGAKNFMNWVFDYWGQGTLVTVSS VL: QSALTQPPSASGSPGQTVTISCTGTSTDVGFYNYVSWYQQHPGKAPKLMIYYTSKRPSGVPDRFSGSKSGNTASLTVSGLQAEDEADYFCSSYRYDHQVSFGGGTKLTVLG	10.2
dBBAT007-P253 (antibody, human IgG1, lambda, V domains shown) VH: EVQLVESGGDLVKPGGGLRLSCAASGFTFSGYTMNWVRQAPGKGLEWVSSISSRSNYAHYADSVKGRFTISRDNAKNSLYLQMNSLRAEDTAVYYCARFGLKNFMNWVFDYWGQGTLVTVSS VL: QSALTQPPSASGSPGQTVTISCTGTSSDVGFYNYVSWYQQHPGKAPKLMIYGTSKRPSGVPDRFSGSKSGNTASLTVSGLQAEDEADYFCSSYAYDAQLVFGGGTKLTVLG	3.8

Recorded values, source patent US20230272099A1.
